Tested on: HUVEC/MSC spheroids viability
experimentDescription: Human HUVEC/MSC cell line growth inhibition [KRAS2]
experimentalContext: second compound 0.316 µM; first compound 0.316 µM; stronger effect = lower value
// NB: equality with 70% counts as False; only viability, T/C strictly below is True

[[record]]
molecule = "Cn1nccc1Nc1nccc(-c2cc3c(s2)C(C)(C)N(CCN2CCOCC2)C3=O)n1 + CNCc1ccccc1-c1csc(C(C)Nc2nc(C)nc3cc(OC)c(OC)cc23)c1"
testedsystem = "HUVEC/MSC spheroids viability"
classname = "False"

[[record]]
molecule = "CC1(C)CCC(CN2CCN(c3ccc(C(=O)NS(=O)(=O)c4ccc(NCC5CCOCC5)c([N+](=O)[O-])c4)c(Oc4cnc5[nH]ccc5c4)c3)CC2)=C(c2ccc(Cl)cc2)C1 + CC1OCC2(CCN(c3cnc(Sc4ccnc(N)c4Cl)c(N)n3)CC2)C1N"
testedsystem = "HUVEC/MSC spheroids viability"
classname = "False"

[[record]]
molecule = "CC1(C)CCC(CN2CCN(c3ccc(C(=O)NS(=O)(=O)c4ccc(NCC5CCOCC5)c([N+](=O)[O-])c4)c(Oc4cnc5[nH]ccc5c4)c3)CC2)=C(c2ccc(Cl)cc2)C1 + COc1cc2nc(C)nc(NC(C)c3cc(N)cc(C(F)(F)F)c3)c2cc1OC1CCOC1"
testedsystem = "HUVEC/MSC spheroids viability"
classname = "False"


# next molecule below
A record lists COc1cc2nccc(Oc3ccc(NC(=O)C4(C(=O)Nc5ccc(F)cc5)CC4)cc3)c2cc1OC + COc1cc2nc(C)nc(NC(C)c3cc(N)cc(C(F)(F)F)c3)c2cc1OC1CCOC1 . Is its viability, T/C below 70%?
True

Data credit: PubChem BioAssay AID2060912
